subject.of.test: KDR (human, UniProt P35968 20-1356)
Sequence (P35968 20-1356): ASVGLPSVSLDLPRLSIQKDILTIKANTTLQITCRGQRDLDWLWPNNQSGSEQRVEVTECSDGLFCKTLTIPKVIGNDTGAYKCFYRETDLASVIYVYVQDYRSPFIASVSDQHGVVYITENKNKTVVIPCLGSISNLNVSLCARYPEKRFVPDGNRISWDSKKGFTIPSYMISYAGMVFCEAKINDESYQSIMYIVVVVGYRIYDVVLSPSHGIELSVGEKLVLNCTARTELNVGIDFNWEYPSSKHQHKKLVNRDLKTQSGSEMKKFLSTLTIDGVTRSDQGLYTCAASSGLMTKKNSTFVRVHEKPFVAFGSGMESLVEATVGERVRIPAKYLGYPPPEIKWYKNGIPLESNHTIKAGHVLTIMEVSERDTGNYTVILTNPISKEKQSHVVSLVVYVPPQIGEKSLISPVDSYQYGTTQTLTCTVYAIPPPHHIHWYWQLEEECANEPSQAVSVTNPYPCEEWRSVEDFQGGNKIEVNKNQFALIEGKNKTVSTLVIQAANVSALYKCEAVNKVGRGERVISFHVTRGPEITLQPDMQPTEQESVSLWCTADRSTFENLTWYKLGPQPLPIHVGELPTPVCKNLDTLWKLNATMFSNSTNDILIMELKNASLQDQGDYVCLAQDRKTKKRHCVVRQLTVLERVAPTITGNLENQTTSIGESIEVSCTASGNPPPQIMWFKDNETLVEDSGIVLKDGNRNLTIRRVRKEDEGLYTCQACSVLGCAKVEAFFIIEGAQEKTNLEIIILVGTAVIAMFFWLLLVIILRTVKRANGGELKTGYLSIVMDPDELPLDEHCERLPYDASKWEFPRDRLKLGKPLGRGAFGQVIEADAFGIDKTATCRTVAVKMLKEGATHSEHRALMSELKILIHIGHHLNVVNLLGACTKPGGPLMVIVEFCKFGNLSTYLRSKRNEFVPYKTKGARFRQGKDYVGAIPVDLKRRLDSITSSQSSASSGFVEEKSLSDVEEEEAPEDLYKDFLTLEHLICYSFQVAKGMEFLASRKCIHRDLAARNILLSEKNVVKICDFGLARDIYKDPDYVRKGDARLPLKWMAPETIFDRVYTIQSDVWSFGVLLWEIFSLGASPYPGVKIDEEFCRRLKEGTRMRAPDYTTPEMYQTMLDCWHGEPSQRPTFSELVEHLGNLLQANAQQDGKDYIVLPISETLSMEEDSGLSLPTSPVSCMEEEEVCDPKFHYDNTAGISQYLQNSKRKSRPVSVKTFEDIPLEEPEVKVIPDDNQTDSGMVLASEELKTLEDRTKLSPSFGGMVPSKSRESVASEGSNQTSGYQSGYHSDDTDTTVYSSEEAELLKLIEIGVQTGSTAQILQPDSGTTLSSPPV
assay.details: cell-based or functional assay
measured.property: Activity at 133 nM (% Inhibition), 1-hour Pre-incubation at 4° C., N = 1 (%)
Number in %, nothing else.

Q: GET /values?readout=Activity at 133 nM (% Inhibition), 1-hour Pre-incubation at 4° C., N = 1&item= 33D5 (antibody, V domains shown) VH: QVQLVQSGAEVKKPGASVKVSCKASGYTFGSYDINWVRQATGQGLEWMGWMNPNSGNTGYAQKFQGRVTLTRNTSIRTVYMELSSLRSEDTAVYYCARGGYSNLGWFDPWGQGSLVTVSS VL: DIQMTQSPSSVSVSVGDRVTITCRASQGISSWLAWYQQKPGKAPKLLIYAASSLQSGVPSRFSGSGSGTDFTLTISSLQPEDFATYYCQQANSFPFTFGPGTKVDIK
Ans: 39

Q: Param item: 32F4 (antibody, V domains shown) VH: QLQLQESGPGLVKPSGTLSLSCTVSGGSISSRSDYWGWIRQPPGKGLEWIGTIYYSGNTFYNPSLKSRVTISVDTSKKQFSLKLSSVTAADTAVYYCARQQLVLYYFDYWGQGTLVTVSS VL: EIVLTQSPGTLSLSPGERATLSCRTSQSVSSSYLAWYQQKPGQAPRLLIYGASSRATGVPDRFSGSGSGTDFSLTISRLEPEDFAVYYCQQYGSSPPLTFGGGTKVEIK
Ans: 60

Q: Param item: 33B1 (antibody, V domains shown) VH: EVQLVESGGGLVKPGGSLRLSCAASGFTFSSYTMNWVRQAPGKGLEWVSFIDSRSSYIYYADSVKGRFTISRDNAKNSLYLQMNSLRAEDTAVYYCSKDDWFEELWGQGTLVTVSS VL: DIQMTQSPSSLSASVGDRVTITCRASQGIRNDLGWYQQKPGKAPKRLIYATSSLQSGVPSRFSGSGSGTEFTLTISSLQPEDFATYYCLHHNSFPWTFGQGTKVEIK
Ans: 86

Q: Param item: 29F7 (antibody, V domains shown) VH: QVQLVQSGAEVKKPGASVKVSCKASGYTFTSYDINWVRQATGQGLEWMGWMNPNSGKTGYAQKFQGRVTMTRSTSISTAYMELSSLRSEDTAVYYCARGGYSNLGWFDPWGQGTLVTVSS VL: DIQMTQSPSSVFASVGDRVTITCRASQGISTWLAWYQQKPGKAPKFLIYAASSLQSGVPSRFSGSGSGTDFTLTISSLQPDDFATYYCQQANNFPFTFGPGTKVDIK
Ans: 36
